- Test system: Aspergillus fumigatus
- Experimental Details: Antifungal activity against Aspergillus fumigatus isolate 7544 by micro-broth dilution method
- Assay type: functional
# MIC80 annotations

{"columns": ["Compound", "Unit Annotation", "Inequality Operator", "MIC80"],
 "data": [
  ["C[C@@H](c1cc(-c2ccc(F)c(F)c2)no1)[C@](O)(Cn1cncn1)c1ccc(F)cc1F", "µg/mL", "=", 8],
  ["C[C@@H](c1cc(-c2c(F)cc(F)cc2F)no1)[C@](O)(Cn1cncn1)c1ccc(F)cc1F", "µg/mL", "=", 2],
  ["C[C@@H](c1cc(-c2c(F)cccc2F)no1)[C@](O)(Cn1cncn1)c1cc(F)ccc1F", "µg/mL", ">", 8],
  ["C[C@@H](c1cc(-c2ccc(Cl)c(Cl)c2)no1)[C@](O)(Cn1cncn1)c1ccc(F)cc1F", "µg/mL", ">", 8],
  ["C[C@@H](c1cc(-c2ccc(F)cc2F)no1)[C@](O)(Cn1cncn1)c1cc(F)ccc1F", "µg/mL", ">", 8],
  ["CC(=O)N1CCN(c2ccc(OCC3COC(Cn4ccnc4)(c4ccc(Cl)cc4Cl)O3)cc2)CC1 (stereo not drawn) [KETOCONAZOLE]", "µg/mL", "=", 4],
  ["C[C@@H](c1cc(-c2cccc(F)c2F)no1)[C@](O)(Cn1cncn1)c1ccc(F)cc1F", "µg/mL", "=", 2],
  ["C[C@@H](c1cc(-c2ccc(S(C)(=O)=O)cc2)no1)[C@](O)(Cn1cncn1)c1ccc(F)cc1F", "µg/mL", "=", 8]
]}

====

The entries below are paired with their reported MIC80.
- Test system: Aspergillus fumigatus
- Experimental Details: Antifungal activity against Aspergillus fumigatus isolate 7544 by micro-broth dilution method
- Assay type: functional

{"columns": ["Sample Smiles", "Inequality Operator", "MIC80 (µg/mL)"],
 "data": [
  ["C[C@@H](c1cc(-c2ccc(C(F)(F)F)cc2)no1)[C@](O)(Cn1cncn1)c1ccc(F)cc1F", ">", 8],
  ["C[C@@H](c1cc(-c2ccc(OC(F)(F)F)cc2)no1)[C@](O)(Cn1cncn1)c1ccc(F)cc1F", "=", 8],
  ["C[C@@H](c1cc(-c2ccccc2F)no1)[C@](O)(Cn1cncn1)c1ccc(F)cc1F", "=", 2],
  ["C[C@@H](c1cc(-c2ccc(F)cc2)no1)[C@](O)(Cn1cncn1)c1ccc(F)cc1F", "=", 2],
  ["C[C@@H](c1cc(-c2cc(F)ccc2F)no1)[C@](O)(Cn1cncn1)c1cc(F)ccc1F", ">", 8],
  ["C[C@@H](c1cc(-c2ccc([N+](=O)[O-])cc2)no1)[C@](O)(Cn1cncn1)c1ccc(F)cc1F", ">", 8],
  ["C[C@@H](c1cc(-c2ccccc2F)no1)[C@](O)(Cn1cncn1)c1cc(F)ccc1F", ">", 8],
  ["C[C@@H](c1cc(-c2ccc(Cl)cc2)no1)[C@](O)(Cn1cncn1)c1ccc(F)cc1F", "=", 4],
  ["C[C@@H](c1cc(-c2ccc(F)cc2F)no1)[C@](O)(Cn1cncn1)c1ccc(F)cc1F", "=", 2],
  ["C[C@@H](c1cc(-c2ccc(Cl)cc2F)no1)[C@](O)(Cn1cncn1)c1ccc(F)cc1F", "=", 8],
  ["C[C@@H](c1cc(-c2c(F)ccc(F)c2F)no1)[C@](O)(Cn1cncn1)c1ccc(F)cc1F", "=", 2],
  ["C[C@@H](c1nc(-c2ccc(C#N)cc2)cs1)[C@](O)(Cn1cncn1)c1ccc(F)cc1F", "=", 2],
  ["C[C@@H](c1cc(-c2ccc(Cl)cc2F)no1)[C@](O)(Cn1cncn1)c1cc(F)ccc1F", ">", 8],
  ["OC(Cn1cncn1)(Cn1cncn1)c1ccc(F)cc1F", ">", 64],
  ["C[C@@H](c1cc(-c2ccc(OC(F)F)cc2)no1)[C@](O)(Cn1cncn1)c1ccc(F)cc1F", "=", 8],
  ["C[C@@H](c1cc(-c2cc(F)ccc2F)no1)[C@](O)(Cn1cncn1)c1ccc(F)cc1F", "=", 4],
  ["C[C@@H](c1cc(-c2ccc(Cl)c(F)c2)no1)[C@](O)(Cn1cncn1)c1ccc(F)cc1F", ">", 8],
  ["C[C@@H](c1cc(-c2cccc(F)c2F)no1)[C@](O)(Cn1cncn1)c1cc(F)ccc1F", ">", 8],
  ["C[C@@H](c1cc(-c2cc(F)cc(F)c2)no1)[C@](O)(Cn1cncn1)c1ccc(F)cc1F", "=", 4]
]}
